Where do the numbers come from? From patent US20250025473A1.

Molecular target: AKT3 (Homo sapiens)
Sequence (Q9Y243 whole entry): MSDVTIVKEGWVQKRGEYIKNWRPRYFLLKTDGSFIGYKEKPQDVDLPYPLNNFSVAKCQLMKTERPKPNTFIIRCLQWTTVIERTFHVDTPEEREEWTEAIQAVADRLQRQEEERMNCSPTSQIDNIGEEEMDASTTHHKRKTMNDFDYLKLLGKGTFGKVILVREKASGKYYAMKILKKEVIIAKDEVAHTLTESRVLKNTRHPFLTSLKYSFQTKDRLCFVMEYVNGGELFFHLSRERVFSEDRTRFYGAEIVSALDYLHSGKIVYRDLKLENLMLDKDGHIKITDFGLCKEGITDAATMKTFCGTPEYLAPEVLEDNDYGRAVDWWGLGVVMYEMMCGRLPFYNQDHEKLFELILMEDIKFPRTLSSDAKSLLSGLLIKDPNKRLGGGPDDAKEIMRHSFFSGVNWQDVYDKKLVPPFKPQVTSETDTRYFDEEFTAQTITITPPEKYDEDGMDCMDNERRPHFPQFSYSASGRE

Smiles Structure: CO[C@@H]1[C@H](N(C)C(=O)CCC(=O)NCc2cn(CCCS(=O)(=O)[O-])nn2)C[C@H]2O[C@]1(C)n1c3ccccc3c3c4c(c5c6ccccc6n2c5c31)C(=O)NC4.[Na+]
IC50: 157 nM

---

Target: AKT1 (Homo sapiens)
Sequence (P31749 whole entry): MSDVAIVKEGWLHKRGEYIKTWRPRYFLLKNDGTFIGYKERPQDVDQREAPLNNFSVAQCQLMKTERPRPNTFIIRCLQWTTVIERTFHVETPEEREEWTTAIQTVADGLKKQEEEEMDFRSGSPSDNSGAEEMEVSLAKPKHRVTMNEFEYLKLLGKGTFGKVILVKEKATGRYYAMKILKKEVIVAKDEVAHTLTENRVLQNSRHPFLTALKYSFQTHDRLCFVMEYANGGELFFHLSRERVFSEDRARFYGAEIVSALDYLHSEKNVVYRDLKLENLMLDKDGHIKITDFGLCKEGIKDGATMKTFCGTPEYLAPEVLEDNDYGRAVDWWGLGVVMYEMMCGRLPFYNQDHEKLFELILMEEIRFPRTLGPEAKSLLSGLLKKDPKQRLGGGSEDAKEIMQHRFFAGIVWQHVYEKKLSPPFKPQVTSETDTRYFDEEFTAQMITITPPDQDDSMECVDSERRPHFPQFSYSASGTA
pIC50: −log10 of the molar value.

Compound: CO[C@@H]1[C@H](N(C)C(=O)CCC(=O)NCc2cn(CCCS(=O)(=O)[O-])nn2)C[C@H]2O[C@]1(C)n1c3ccccc3c3c4c(c5c6ccccc6n2c5c31)C(=O)NC4.[Na+] [CIMSS]
Measurement Target: AKT1 (Homo sapiens)
pIC50: 6.34

---

Biological target: PDPK1 (Homo sapiens)
Test Readout: IC50 (nM)

Molecule: CO[C@@H]1[C@H](N(C)C(=O)CCC(=O)NCc2cn(CCCS(=O)(=O)[O-])nn2)C[C@H]2O[C@]1(C)n1c3ccccc3c3c4c(c5c6ccccc6n2c5c31)C(=O)NC4.[Na+] [CIMSS]
Test Readout: IC50
Value Units: nM
Test Result: 0.278

---

Biological target: panel of 393 kinases (Homo sapiens, UniProt Q9BQI3)
Sequence (Q9BQI3 whole entry): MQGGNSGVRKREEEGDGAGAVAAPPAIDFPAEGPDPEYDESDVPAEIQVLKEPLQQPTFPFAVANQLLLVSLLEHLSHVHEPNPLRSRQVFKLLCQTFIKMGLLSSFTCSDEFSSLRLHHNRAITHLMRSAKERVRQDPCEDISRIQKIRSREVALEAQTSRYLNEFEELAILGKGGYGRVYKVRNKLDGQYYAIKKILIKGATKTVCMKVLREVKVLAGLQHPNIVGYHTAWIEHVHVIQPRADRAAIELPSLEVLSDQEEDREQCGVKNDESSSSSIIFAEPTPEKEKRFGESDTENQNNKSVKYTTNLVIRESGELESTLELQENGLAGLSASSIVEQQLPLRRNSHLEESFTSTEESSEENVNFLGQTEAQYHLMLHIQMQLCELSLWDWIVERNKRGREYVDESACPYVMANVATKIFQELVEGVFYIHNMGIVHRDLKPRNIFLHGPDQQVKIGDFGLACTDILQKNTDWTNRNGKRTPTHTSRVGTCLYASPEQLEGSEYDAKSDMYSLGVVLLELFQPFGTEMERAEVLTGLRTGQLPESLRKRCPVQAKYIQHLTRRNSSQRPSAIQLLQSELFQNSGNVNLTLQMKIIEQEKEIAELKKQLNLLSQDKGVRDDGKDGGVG

Smiles Structure: Cn1cc(-c2ccc3c(c2)CCN3C(=O)Cc2cccc(C(F)(F)F)c2)c2c(N)ncnc21
IC50: 96.2 nM

---

Target: EGFR (Homo sapiens, UniProt P00533)
Sequence (P00533 25-1210): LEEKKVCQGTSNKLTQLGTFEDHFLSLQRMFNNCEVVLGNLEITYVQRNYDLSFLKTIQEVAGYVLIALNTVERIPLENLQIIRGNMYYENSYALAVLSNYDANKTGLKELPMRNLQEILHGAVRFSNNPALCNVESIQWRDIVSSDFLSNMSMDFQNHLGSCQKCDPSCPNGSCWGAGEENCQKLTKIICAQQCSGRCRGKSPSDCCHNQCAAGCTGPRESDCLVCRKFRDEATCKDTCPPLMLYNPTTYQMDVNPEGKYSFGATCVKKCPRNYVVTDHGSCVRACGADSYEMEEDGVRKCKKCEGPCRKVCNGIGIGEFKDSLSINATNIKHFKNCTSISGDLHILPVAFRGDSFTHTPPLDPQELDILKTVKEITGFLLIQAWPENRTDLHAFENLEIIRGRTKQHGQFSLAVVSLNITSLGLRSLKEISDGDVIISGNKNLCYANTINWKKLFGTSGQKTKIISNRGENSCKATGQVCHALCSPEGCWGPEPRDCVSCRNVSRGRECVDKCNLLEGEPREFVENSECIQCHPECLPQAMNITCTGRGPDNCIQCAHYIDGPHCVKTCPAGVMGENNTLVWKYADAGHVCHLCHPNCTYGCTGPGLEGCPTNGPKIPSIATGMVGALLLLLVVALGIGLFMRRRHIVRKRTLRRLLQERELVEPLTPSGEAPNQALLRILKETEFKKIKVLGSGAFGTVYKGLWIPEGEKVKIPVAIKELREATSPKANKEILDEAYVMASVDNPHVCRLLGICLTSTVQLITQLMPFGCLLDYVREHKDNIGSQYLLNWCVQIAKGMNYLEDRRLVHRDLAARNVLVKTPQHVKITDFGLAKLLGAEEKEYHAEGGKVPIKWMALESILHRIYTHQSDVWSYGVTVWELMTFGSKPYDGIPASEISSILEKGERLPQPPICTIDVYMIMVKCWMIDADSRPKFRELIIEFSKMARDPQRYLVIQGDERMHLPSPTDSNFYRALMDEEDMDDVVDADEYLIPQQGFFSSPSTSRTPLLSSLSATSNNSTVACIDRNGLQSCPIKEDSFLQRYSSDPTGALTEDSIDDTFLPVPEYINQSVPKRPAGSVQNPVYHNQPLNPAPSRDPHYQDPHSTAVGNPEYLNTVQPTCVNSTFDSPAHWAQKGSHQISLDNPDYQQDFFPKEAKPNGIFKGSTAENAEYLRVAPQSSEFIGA

Smiles Structure: CO[C@@H]1[C@H](N(C)C(=O)CCC(=O)NCc2cn(CCCS(=O)(=O)[O-])nn2)C[C@H]2O[C@]1(C)n1c3ccccc3c3c4c(c5c6ccccc6n2c5c31)C(=O)NC4.[Na+]
Measurement Target: EGFR (Homo sapiens, UniProt P00533)
IC50 (nM): 1610

---

Biological target: panel of 393 kinases (Homo sapiens, UniProt Q15120)
Construct: purchased Reaction Biology Corporation
Sequence (Q15120 whole entry): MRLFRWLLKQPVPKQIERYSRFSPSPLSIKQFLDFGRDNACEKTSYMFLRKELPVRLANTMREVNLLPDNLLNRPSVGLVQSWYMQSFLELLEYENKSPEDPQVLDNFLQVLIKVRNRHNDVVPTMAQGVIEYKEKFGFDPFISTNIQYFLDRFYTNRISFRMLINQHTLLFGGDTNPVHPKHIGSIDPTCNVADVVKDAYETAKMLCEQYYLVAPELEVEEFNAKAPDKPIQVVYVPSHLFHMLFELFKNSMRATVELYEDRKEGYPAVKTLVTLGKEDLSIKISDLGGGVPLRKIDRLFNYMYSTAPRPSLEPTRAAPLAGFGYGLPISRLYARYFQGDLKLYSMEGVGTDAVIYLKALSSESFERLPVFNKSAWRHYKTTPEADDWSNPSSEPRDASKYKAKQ
Assay: biochemical
Settings: kinase PDK3/PDHK3; control compound

Smiles Structure: O=C1Nc2ccc(I)cc2/C1=C/c1cc(Br)c(O)c(Br)c1
Measurement Target: panel of 393 kinases (Homo sapiens, UniProt Q15120)
IC50, nM: 2570

---

Molecular target: UniProtKB P31751
Sequence (P31751 whole entry): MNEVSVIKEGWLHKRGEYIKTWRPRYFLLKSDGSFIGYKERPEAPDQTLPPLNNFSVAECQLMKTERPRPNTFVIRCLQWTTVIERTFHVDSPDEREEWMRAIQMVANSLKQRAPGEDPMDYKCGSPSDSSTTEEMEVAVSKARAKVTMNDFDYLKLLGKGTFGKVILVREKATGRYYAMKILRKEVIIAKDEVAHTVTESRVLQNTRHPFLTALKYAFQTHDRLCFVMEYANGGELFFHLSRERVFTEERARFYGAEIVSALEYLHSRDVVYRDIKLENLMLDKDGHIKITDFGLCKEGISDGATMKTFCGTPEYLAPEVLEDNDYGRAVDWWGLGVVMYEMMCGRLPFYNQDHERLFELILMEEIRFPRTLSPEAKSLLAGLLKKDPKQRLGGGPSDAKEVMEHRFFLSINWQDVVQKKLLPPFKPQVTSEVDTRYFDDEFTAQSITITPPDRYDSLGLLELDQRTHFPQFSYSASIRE
Test Readout: IC50 (nM)

Smiles Structure: CO[C@@H]1[C@H](N(C)C(=O)CCC(=O)NCc2cn(CCCS(=O)(=O)[O-])nn2)C[C@H]2O[C@]1(C)n1c3ccccc3c3c4c(c5c6ccccc6n2c5c31)C(=O)NC4.[Na+]
Test Result: 1000

---

Molecular target: ABL1 (Homo sapiens, UniProt P00519)
Sequence (P00519 whole entry): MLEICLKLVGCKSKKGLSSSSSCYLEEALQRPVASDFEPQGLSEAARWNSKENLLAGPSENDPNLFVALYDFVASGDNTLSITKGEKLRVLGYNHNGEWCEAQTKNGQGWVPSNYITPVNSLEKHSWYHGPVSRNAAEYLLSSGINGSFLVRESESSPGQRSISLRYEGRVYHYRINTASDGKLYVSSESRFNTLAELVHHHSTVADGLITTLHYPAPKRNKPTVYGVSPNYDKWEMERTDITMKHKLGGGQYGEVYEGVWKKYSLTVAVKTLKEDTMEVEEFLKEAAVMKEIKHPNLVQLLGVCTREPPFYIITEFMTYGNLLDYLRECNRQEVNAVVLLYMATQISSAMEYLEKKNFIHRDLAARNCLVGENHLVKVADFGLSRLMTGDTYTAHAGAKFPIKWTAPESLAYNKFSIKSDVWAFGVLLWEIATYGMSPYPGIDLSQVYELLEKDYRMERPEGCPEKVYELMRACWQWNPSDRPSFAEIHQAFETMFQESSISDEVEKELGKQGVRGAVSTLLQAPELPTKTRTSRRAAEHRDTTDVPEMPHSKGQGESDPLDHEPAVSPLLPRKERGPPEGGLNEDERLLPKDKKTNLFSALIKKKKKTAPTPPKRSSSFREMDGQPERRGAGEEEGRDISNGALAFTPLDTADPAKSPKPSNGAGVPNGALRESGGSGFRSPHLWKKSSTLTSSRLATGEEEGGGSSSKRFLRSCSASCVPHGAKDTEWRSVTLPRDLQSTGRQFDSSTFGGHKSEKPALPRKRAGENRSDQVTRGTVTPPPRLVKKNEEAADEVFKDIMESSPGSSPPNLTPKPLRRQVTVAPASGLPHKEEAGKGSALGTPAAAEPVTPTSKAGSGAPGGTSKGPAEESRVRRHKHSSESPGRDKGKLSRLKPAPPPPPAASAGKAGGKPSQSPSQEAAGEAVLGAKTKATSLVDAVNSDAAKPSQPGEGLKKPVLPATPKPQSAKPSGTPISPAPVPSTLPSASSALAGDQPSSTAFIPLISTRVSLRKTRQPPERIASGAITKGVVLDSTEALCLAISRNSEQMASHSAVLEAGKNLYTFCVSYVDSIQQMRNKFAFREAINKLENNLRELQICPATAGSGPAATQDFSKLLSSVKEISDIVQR
pIC50: −log10 of the molar value.
Test Readout: pIC50

Smiles Structure: CO[C@@H]1[C@H](N(C)C(=O)CCC(=O)NCc2cn(CCCS(=O)(=O)[O-])nn2)C[C@H]2O[C@]1(C)n1c3ccccc3c3c4c(c5c6ccccc6n2c5c31)C(=O)NC4.[Na+]
Test Result: 6.84

---

Target: Insulin Receptor (Homo sapiens, UniProt P06213)
Test Readout: IC50

Compound: CO[C@@H]1[C@H](N(C)C(=O)CCC(=O)NCc2cn(CCCS(=O)(=O)[O-])nn2)C[C@H]2O[C@]1(C)n1c3ccccc3c3c4c(c5c6ccccc6n2c5c31)C(=O)NC4.[Na+] [CIMSS]
Test Result: 803 nM
